target: BACE1 in primary mouse cortical neurons (mouse, UniProt P56818 46-501); assay: cell-based or functional assay
Sequence (P56818 46-501): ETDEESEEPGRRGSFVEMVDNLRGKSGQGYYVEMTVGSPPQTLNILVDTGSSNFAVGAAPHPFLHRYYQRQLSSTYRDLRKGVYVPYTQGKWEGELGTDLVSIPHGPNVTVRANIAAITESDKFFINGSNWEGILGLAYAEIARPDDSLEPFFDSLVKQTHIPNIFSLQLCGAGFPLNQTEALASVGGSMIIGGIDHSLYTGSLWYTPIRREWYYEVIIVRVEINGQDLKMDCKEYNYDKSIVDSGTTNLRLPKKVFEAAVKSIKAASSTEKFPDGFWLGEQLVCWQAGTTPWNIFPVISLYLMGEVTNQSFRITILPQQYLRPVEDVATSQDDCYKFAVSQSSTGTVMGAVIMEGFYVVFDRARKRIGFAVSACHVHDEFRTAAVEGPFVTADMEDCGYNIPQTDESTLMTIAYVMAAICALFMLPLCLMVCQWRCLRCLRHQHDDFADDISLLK
Recorded measurements of maximal % inhibition of Abeta x-40, one per entry
Express your answer in %, writing the number without its unit.

Input line: May I ask what maximal % inhibition of Abeta x-40 has been recorded for 5884 (antibody, V domains shown, anti-BACE1 IgG) VH: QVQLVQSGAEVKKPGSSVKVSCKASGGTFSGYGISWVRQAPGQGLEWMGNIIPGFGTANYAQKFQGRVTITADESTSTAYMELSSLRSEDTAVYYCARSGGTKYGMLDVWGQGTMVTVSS VL: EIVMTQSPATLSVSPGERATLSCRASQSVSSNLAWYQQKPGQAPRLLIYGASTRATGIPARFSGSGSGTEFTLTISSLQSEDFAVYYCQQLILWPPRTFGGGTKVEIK ?
Output line: 83

Input line: Please look up its maximal % inhibition of Abeta x-40: 5543 (antibody, V domains shown) VH: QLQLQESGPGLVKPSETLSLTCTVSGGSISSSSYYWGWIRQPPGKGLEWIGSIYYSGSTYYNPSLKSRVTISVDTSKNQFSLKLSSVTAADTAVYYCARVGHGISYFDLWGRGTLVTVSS VL: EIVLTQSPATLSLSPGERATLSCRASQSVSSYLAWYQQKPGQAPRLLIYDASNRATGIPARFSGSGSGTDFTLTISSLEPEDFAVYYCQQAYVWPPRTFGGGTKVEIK
Output line: 65

Input line: Find the recorded maximal % inhibition of Abeta x-40 belonging to 5883 (antibody, V domains shown, anti-BACE1 IgG) VH: QVQLVQSGAEVKKPGSSVKVSCKASGGTFSSYAISWVRQAPGQGLEWMGGIIPIGGGANYAQKFQGRVTITADESTSTAYMELSSLRSEDTAVYYCARSGGTKYGMLDVWGQGTMVTVSS VL: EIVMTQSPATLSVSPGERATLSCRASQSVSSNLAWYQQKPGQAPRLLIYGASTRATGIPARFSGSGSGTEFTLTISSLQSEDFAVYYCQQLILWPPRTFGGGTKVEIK and report it.
Output line: 82

Input line: Entry 5747 (antibody, V domains shown, anti-BACE1 IgG) VH: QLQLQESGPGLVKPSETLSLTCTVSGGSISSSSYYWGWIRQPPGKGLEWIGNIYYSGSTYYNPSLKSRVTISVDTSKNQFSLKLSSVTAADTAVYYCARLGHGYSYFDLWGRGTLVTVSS VL: EIVLTQSPATLSLSPGERATLSCRASQSVSSYLAWYQQKPGQAPRLLIYDASNRATGIPARFSGSGSGTDFTLTISSLEPEDFAVYYCQQVYLWPPRTFGGGTKVEIK has what maximal % inhibition of Abeta x-40?
Output line: 74

Input line: What does the data say about its maximal % inhibition of Abeta x-40? Entry: 5260 (antibody, V domains shown, anti-BACE1 IgG) VH: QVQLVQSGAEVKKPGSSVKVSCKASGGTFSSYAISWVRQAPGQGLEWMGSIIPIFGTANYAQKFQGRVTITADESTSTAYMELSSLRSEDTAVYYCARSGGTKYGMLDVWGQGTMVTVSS VL: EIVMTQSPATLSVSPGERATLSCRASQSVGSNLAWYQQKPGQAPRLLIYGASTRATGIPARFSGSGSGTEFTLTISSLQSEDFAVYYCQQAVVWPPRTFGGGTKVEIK
Output line: 74
